- procedure_details: Pharmacokinetic analysis of compound 23 plasma concentrations in patients (LC-MS/MS, non-compartmental)
- Format: in vivo, human
- settings: human; Cycle 1 Day 1, 50 mg once daily (n = 2), plasma, median

# compound, Tmax
rows = [
    ("C[C@H]1CCCN(Cc2cc3c(c(C(F)(F)F)c2)CN(c2cccc([C@]4(c5nncn5C)C[C@@H](C)C4)c2)C3=O)C1 [Compound 23]", "2.5 h"),
]

----------
- procedure_details: Pharmacokinetic analysis of compound 23 plasma concentrations in patients (LC-MS/MS, non-compartmental)
- Type: in vivo, human
- settings: human; Cycle 1 Day 1, 5 mg once daily (n = 1), plasma, geometric mean
property_name: Cmax

# mol, property_name, result
rows = [
    ("C[C@H]1CCCN(Cc2cc3c(c(C(F)(F)F)c2)CN(c2cccc([C@]4(c5nncn5C)C[C@@H](C)C4)c2)C3=O)C1", "Cmax", "4.35 ng/mL"),
]

----------
- procedure_details: Pharmacokinetic analysis of compound 23 plasma concentrations in patients (LC-MS/MS, non-compartmental)
- Assay type: in vivo, human
- settings: human; Cycle 1 Day 1, 15 mg once daily (n = 9), plasma, median
property_name: Tmax (h)

# compound, numeric_value
data = [
    ("C[C@H]1CCCN(Cc2cc3c(c(C(F)(F)F)c2)CN(c2cccc([C@]4(c5nncn5C)C[C@@H](C)C4)c2)C3=O)C1 [Compound 23]", 2),
]

----------
- procedure_details: Pharmacokinetic analysis of compound 23 plasma concentrations in patients (LC-MS/MS, non-compartmental)
- Format: in vivo, human
- settings: human; Cycle 1 Day 1, 15 mg once daily (n = 9), plasma, geometric mean
- Description: Patients were administered doses of compound 23 ranging from 5 to 50 mg once daily. Plasma concentrations of compound 23 were quantified using acetonitrile precipitation and LC-MS/MS. The peak area of the product ion of the analyte was measured against the peak area of the product ion of the stable label internal standard. A calibration curve spanning the curve range and containing at least six conentrations in duplicate was used to quantify the analyte concentration. […]

# compound, AUC(0-t), ng·h/mL
measured = [
    ("C[C@H]1CCCN(Cc2cc3c(c(C(F)(F)F)c2)CN(c2cccc([C@]4(c5nncn5C)C[C@@H](C)C4)c2)C3=O)C1 [Compound 23]", 129),
]

----------
- procedure_details: Pharmacokinetic analysis of compound 23 plasma concentrations in patients (LC-MS/MS, non-compartmental)
- Format: in vivo, human
- settings: human; Cycle 1 Day 1, 25 mg once daily (n = 6), plasma, geometric mean
property_name: Cmax

# compound, result
measured = [
    ("C[C@H]1CCCN(Cc2cc3c(c(C(F)(F)F)c2)CN(c2cccc([C@]4(c5nncn5C)C[C@@H](C)C4)c2)C3=O)C1 [Compound 23]", "30.1 ng/mL"),
]
